- Tested on: P. aeruginosa ATCC 27853
- PROTOCOL: Neutropenic mouse bloodstream infection model
- Assay type: in vivo
- TEST SETTINGS: single IV dose 4 mg/kg, 4 h
Residues, ends and D or L forms follow the SMILES beside them.
QUANTITY MEASURED: Log10 CFU/mL blood at 4 h, Mean (Log10 CFU/mL blood)

# MOLECULE, READOUT VALUE
measured = [
    ("CC[C@@H]1NC(=O)[C@@H](CC(C)C)NC(=O)[C@H](CCN)NC(=O)[C@@H](NC(=O)[C@H](CN)NC(=O)[C@@H](NC(=O)[C@H](CCN)NC(=O)c2ccc(-c3ccccc3)cc2)[C@@H](C)O)CCNC(=O)[C@H]([C@@H](C)O)NC(=O)[C@H](CCN)NC(=O)[C@H](CCN)NC1=O [Lipopeptide F477] (HELM PEPTIDE1{[O=C(c1ccc(-c2ccccc2)cc1)[*:2]].[Dab].T.[NC[C@H](N[*:1])C(=O)[*:2]].[Dab].[Dab].[dL].[Abu].[Dab].[Dab].T}$PEPTIDE1,PEPTIDE1,5:R3-11:R2$$$V2.0)", 3.39),
    ("CC[C@@H]1NC(=O)[C@@H](CC(C)C)NC(=O)[C@H](CCN)NC(=O)[C@@H](NC(=O)[C@H](CN)NC(=O)[C@@H](NC(=O)[C@H](CCN)NC(=O)c2cc(Cl)cc(Cl)c2)[C@@H](C)O)CCNC(=O)[C@H]([C@@H](C)O)NC(=O)[C@H](CCN)NC(=O)[C@H](CCN)NC1=O [Lipopeptide F381] (HELM PEPTIDE1{[O=C(c1cc(Cl)cc(Cl)c1)[*:2]].[Dab].T.[NC[C@H](N[*:1])C(=O)[*:2]].[Dab].[Dab].[dL].[Abu].[Dab].[Dab].T}$PEPTIDE1,PEPTIDE1,5:R3-11:R2$$$V2.0)", 4.49),
]

---

- PROTOCOL: 14-day repeat-dose GLP toxicology study
- TEST SETTINGS: cynomolgus monkey, in vivo
Residues, ends and D or L forms follow the SMILES beside them.

# COMPOUND, NOAEL
rows = [
    ("CC[C@@H]1NC(=O)[C@@H](CC(C)C)NC(=O)[C@H](CCN)NC(=O)[C@@H](NC(=O)[C@H](CN)NC(=O)[C@@H](NC(=O)[C@H](CCN)NC(=O)c2ccc(Cl)cc2Cl)[C@@H](C)O)CCNC(=O)[C@H]([C@@H](C)O)NC(=O)[C@H](CCN)NC(=O)[C@H](CCN)NC1=O [Lipopeptide F365] (HELM PEPTIDE1{[O=C(c1ccc(Cl)cc1Cl)[*:2]].[Dab].T.[NC[C@H](N[*:1])C(=O)[*:2]].[Dab].[Dab].[dL].[Abu].[Dab].[Dab].T}$PEPTIDE1,PEPTIDE1,5:R3-11:R2$$$V2.0)", "≥ 20 mg/kg/day"),
]

---

- System: K. pneumoniae FADDI-KP032
- Format: cell-based, Klebsiella pneumoniae
- TEST SETTINGS: FADDI-KP032
Residues, ends and D or L forms follow the SMILES beside them.

# COMPOUND, MEASURED ON, MIC K. pneumoniae FADDI-KP032
rows = [
    ("CCCCCCCC(=O)N[C@@H](CCN)C(=O)N[C@H](C(=O)N[C@H](CN)C(=O)N[C@H]1CCNC(=O)[C@H]([C@@H](C)O)NC(=O)[C@H](CCN)NC(=O)[C@H](CCN)NC(=O)[C@H]([C@@H](C)O)NC(=O)[C@@H](CC(C)C)NC(=O)[C@H](CCN)NC1=O)[C@@H](C)O [Lipopeptide F300] (HELM PEPTIDE1{[CCCCCCCC(=O)[*:2]].[Dab].T.[NC[C@@H](N[*:1])C(=O)[*:2]].[Dab].[Dab].[dL].T.[Dab].[Dab].T}$PEPTIDE1,PEPTIDE1,5:R3-11:R2$$$V2.0)", "K. pneumoniae FADDI-KP032", "<0.125 µg/mL"),
]

---

- System: K. pneumoniae FADDI-KP032
- Type: cell-based, Klebsiella pneumoniae
- TEST SETTINGS: FADDI-KP032
Residues, ends and D or L forms follow the SMILES beside them.

# COMPOUND, MEASURED ON, UNIT ANNOTATION, MIC K. pneumoniae FADDI-KP032
measured = [
    ("CC[C@@H]1NC(=O)[C@@H](CC(C)C)NC(=O)[C@H](CCN)NC(=O)[C@@H](NC(=O)[C@H](CN)NC(=O)[C@@H](NC(=O)[C@H](CCN)NC(=O)c2c(Cl)cccc2Cl)[C@@H](C)O)CCNC(=O)[C@H]([C@@H](C)O)NC(=O)[C@H](CCN)NC(=O)[C@H](CCN)NC1=O [Lipopeptide F360] (HELM PEPTIDE1{[O=C(c1c(Cl)cccc1Cl)[*:2]].[Dab].T.[NC[C@H](N[*:1])C(=O)[*:2]].[Dab].[Dab].[dL].[Abu].[Dab].[Dab].T}$PEPTIDE1,PEPTIDE1,5:R3-11:R2$$$V2.0)", "K. pneumoniae FADDI-KP032", "µg/mL", 1),
]

---

- Tested on: P. aeruginosa ATCC 27853
- Assay type: cell-based, Pseudomonas aeruginosa
- TEST SETTINGS: ATCC 27853
Residues, ends and D or L forms follow the SMILES beside them.

# MOLECULE, MEASURED ON, MIC P. aeruginosa ATCC 27853 [µg/mL]
records = [
    ("CC[C@@H]1NC(=O)[C@@H](CC(C)C)NC(=O)[C@H](CCN)NC(=O)[C@@H](NC(=O)[C@H](CN)NC(=O)[C@@H](NC(=O)[C@H](CCN)NC(=O)c2ccc(C)cc2)[C@@H](C)O)CCNC(=O)[C@H]([C@@H](C)O)NC(=O)[C@H](CCN)NC(=O)[C@H](CCN)NC1=O [Lipopeptide F383] (HELM PEPTIDE1{[Cc1ccc(C(=O)[*:2])cc1].[Dab].T.[NC[C@H](N[*:1])C(=O)[*:2]].[Dab].[Dab].[dL].[Abu].[Dab].[Dab].T}$PEPTIDE1,PEPTIDE1,5:R3-11:R2$$$V2.0)", "P. aeruginosa ATCC 27853", 0.5),
]

---

Parameter viability at 24 h: see the listing below.
- PROTOCOL: Cell viability after 24 h treatment
- Type: cell-based, human
- TEST SETTINGS: human, KCNJ16 knockout HK-2 cells (kidney proximal tubular), Cell viability, KCNJ16 KO, Rep1; KCNJ16 knockout HK-2 cells, 24 h; replicate 1; Fig. 6b; read-out: Cell viability, KCNJ16 KO, Rep1
Residues, ends and D or L forms follow the SMILES beside them.
QUANTITY MEASURED: viability at 24 h (%)

# COMPOUND, READOUT VALUE
data = [
    ("CCCCCCCC(=O)N[C@@H](CCN)C(=O)N[C@H](C(=O)N[C@@H](CN)C(=O)N[C@H]1CCNC(=O)[C@H]([C@@H](C)O)NC(=O)[C@H](CCN)NC(=O)[C@H](CCN)NC(=O)[C@H](CC)NC(=O)[C@@H](CC(C)C)NC(=O)[C@H](CCN)NC1=O)[C@@H](C)O [Lipopeptide F287] (HELM PEPTIDE1{[CCCCCCCC(=O)[*:2]].[Dab].T.[NC[C@H](N[*:1])C(=O)[*:2]].[Dab].[Dab].[dL].[Abu].[Dab].[Dab].T}$PEPTIDE1,PEPTIDE1,5:R3-11:R2$$$V2.0)", 91.7),
    ("CCCCCCCC(=O)N[C@@H](CCN)C(=O)N[C@H](C(=O)N[C@@H](CCN)C(=O)N[C@H]1CCNC(=O)[C@H]([C@@H](C)O)NC(=O)[C@H](CCN)NC(=O)[C@H](CCN)NC(=O)[C@H](CC)NC(=O)[C@@H](CC(C)C)NC(=O)[C@H](CCN)NC1=O)[C@@H](C)O [Lipopeptide F319] (HELM PEPTIDE1{[CCCCCCCC(=O)[*:2]].[Dab].T.[Dab].[Dab].[Dab].[dL].[Abu].[Dab].[Dab].T}$PEPTIDE1,PEPTIDE1,5:R3-11:R2$$$V2.0)", 104),
    ("CC[C@@H]1NC(=O)[C@@H](CC(C)C)NC(=O)[C@H](CCN)NC(=O)[C@@H](NC(=O)[C@H](CN)NC(=O)[C@@H](NC(=O)[C@H](CCN)NC(=O)c2ccc(Cl)cc2Cl)[C@@H](C)O)CCNC(=O)[C@H]([C@@H](C)O)NC(=O)[C@H](CCN)NC(=O)[C@H](CCN)NC1=O [Lipopeptide F365] (HELM PEPTIDE1{[O=C(c1ccc(Cl)cc1Cl)[*:2]].[Dab].T.[NC[C@H](N[*:1])C(=O)[*:2]].[Dab].[Dab].[dL].[Abu].[Dab].[Dab].T}$PEPTIDE1,PEPTIDE1,5:R3-11:R2$$$V2.0)", 76),
]

Data origin, for the record: paper PMC8956739
